Give IC50 for every item shown.
# ASSAY SYSTEM: UniProt Q15858
# METHOD DESCRIPTION: Electrophysiological assay (EP), voltage clamp on Syncropatch 384PE, CHO cells stably expressing Nav1.7
# Assay type: cell-based
# APPLIED CONDITIONS: holding potential −50 mV, 7.5 min compound incubation, read-out: EP_SP hNav1.7 EVO IC50
# Sequence (Q15858 other isoform, or with tags, fused parts or gaps): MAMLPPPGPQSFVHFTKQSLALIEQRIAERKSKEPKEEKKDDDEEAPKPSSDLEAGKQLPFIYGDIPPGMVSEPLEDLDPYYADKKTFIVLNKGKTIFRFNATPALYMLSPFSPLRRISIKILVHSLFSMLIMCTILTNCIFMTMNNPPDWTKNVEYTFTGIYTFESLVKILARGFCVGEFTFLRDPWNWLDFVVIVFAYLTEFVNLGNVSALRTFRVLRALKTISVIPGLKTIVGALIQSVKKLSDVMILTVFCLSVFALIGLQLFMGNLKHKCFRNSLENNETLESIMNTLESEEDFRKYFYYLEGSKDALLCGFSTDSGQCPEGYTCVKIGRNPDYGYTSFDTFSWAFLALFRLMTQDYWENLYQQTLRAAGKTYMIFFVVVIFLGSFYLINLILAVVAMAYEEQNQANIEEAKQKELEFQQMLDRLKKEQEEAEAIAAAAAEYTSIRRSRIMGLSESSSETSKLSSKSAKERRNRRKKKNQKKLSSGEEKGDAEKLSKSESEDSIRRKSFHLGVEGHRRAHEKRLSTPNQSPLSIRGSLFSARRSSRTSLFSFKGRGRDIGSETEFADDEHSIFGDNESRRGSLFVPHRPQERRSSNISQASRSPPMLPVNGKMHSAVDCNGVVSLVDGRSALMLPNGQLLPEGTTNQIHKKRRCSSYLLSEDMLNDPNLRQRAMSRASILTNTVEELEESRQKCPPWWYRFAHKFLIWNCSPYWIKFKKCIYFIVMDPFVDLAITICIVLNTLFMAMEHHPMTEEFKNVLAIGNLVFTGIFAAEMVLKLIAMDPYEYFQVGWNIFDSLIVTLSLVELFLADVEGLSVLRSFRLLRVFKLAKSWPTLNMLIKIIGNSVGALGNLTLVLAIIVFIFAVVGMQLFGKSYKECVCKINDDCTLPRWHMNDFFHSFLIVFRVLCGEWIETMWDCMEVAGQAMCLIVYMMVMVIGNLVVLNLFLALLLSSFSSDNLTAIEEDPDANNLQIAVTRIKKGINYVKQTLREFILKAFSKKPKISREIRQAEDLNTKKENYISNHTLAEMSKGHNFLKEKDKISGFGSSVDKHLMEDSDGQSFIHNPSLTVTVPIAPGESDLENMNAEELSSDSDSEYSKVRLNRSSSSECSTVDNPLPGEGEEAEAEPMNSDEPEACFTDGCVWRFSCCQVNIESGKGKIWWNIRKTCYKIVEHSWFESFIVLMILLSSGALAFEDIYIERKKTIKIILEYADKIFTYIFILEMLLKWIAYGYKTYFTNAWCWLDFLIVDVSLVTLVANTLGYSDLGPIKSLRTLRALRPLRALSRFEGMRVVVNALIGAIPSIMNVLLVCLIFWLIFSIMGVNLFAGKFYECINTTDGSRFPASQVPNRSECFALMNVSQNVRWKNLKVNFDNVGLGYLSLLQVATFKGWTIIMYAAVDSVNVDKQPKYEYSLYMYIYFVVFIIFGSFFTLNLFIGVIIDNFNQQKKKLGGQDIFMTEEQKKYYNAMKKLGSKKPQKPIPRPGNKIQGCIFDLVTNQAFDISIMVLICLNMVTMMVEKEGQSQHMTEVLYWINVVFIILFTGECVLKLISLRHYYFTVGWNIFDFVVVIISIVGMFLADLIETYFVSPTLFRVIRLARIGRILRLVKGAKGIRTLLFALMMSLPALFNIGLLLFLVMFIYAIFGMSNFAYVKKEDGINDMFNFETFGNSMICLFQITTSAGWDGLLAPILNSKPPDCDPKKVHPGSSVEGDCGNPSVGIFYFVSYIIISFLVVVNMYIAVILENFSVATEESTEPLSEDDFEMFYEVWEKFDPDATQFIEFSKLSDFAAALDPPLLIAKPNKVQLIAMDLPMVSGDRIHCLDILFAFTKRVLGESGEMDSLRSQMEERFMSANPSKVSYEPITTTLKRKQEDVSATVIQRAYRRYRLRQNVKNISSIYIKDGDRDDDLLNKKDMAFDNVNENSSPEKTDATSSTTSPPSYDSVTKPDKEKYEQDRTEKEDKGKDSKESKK
Where a name gives a salt, the structure may show the parent alone.

CN(C)[C@H]1CN(c2cc(C(F)(F)F)ccn2)CC[C@@H]1Nc1cc(F)c(S(=O)(=O)Nc2ccncn2)cc1Cl [Example 71, formate]; 7.04 nM
CN1CC(C(=O)N(C)[C@H]2C[C@@H](c3cccc(C(F)(F)F)c3)CC[C@@H]2Nc2cc(F)c(S(=O)(=O)Nc3ccncn3)cc2Cl)C1 [Example 39]; 0.83 nM
O=S(=O)(Nc1ccncn1)c1cc(Cl)c(O[C@H]2CC[C@H](c3cccc(C(F)(F)F)c3)C[C@@H]2N2CCCC2)cc1F [Example 60, formate]; 0.745 nM
O=S(=O)(Nc1ccncn1)c1cc(F)c(N[C@H]2CC[C@H](c3cccc(C(F)(F)F)c3F)C[C@@H]2N2CCCC2)cc1F [Example 70, hydrochloride]; 0.966 nM
CN(C)[C@H]1C[C@@H](c2cccc(C(F)(F)F)c2)CC[C@@H]1Nc1cc(F)c(S(=O)(=O)Nc2ccncn2)cc1OC(F)F [Example 5, formate]; 0.519 nM

Turning now to a further record.
*Q* May I ask what IC50 has been recorded for CN(C)[C@H]1C[C@@H](c2cccc(Cl)c2Cl)CC[C@@H]1Oc1cc(F)c(S(=O)(=O)Nc2ccncn2)cc1Cl [Example 75] ?
*A* 2.62 nM

----------
# ASSAY SYSTEM: hNav1.7 (Homo sapiens (Human), UniProt Q15858)
# METHOD DESCRIPTION: Tritiated compound binding to membranes from cells heterologously expressing hNav1.7 and the β1 subunit (Nav1.7 LBA)
# APPLIED CONDITIONS: competitive binding vs [3H]compound, membranes with hNav1.7 and β1 subunit; read-out: Nav1.7 LBA EVO IC50
# Sequence (Q15858 whole entry, looked up): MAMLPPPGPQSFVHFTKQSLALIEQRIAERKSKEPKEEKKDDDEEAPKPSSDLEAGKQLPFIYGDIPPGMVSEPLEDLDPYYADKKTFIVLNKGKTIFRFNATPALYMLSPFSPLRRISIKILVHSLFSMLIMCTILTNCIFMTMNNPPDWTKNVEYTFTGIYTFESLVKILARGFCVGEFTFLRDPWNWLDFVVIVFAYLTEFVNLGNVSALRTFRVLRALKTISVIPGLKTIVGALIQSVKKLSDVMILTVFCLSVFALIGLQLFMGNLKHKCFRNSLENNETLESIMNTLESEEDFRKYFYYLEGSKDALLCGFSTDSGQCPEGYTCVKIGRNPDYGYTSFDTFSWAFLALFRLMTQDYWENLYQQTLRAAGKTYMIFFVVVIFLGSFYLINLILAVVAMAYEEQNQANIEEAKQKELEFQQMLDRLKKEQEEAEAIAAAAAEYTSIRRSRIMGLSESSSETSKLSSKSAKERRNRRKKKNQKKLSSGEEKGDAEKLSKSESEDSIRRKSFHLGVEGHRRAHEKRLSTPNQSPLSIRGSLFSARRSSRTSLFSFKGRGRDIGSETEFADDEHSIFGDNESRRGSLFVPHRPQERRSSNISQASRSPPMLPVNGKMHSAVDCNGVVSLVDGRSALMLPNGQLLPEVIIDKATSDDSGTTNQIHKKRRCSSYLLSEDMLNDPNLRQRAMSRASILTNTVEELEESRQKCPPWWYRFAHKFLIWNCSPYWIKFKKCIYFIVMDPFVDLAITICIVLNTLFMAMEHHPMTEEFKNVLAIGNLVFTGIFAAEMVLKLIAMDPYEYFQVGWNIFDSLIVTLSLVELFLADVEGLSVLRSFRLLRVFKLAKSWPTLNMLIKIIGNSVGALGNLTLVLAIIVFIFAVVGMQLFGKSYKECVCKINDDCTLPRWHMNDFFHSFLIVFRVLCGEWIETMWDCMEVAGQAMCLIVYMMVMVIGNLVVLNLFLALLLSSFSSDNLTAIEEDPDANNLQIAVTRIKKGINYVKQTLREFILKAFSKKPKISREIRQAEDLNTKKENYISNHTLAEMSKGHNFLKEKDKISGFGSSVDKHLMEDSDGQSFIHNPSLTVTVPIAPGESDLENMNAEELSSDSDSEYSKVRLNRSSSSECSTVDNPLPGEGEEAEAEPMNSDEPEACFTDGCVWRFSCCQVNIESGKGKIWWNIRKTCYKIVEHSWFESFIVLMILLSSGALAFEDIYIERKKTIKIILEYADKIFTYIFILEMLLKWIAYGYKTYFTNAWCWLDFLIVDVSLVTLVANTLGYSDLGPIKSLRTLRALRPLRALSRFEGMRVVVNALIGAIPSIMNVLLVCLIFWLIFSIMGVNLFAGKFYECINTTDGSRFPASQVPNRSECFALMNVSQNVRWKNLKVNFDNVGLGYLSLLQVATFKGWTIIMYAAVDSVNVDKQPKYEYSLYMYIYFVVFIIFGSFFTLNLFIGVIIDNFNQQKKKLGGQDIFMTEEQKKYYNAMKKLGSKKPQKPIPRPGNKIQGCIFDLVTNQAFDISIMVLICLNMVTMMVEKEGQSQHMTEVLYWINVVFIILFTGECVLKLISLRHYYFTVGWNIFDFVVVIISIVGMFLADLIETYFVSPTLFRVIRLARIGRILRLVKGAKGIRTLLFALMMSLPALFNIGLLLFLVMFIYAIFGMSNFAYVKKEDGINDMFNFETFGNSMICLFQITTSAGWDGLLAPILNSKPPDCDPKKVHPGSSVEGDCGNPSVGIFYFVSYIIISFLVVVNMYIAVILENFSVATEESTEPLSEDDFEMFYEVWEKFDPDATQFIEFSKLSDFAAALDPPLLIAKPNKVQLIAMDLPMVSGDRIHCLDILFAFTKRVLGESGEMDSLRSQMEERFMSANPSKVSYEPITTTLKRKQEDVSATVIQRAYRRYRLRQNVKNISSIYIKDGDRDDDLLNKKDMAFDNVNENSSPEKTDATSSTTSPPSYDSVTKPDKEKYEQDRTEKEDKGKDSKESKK
# Sequence (Q07699 whole entry partner, looked up): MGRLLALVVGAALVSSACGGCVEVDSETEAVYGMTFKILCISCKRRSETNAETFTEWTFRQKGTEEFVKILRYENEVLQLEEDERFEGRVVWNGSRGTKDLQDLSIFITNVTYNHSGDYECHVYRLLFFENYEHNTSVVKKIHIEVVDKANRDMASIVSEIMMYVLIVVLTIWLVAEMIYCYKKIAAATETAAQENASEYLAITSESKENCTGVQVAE
Structures can show the parent of a compound that is named as a salt.
Each record gets a class by IC50: bucket 1: < 2 nM; bucket 2: ≥ 2 nM and < 10 nM; bucket 3: ≥ 10 nM

CC(C)[C@H](N)C(=O)N(C)[C@H]1C[C@@H](c2cccc(C(F)(F)F)c2)CC[C@@H]1Nc1cc(F)c(S(=O)(=O)Nc2ccncn2)cc1Cl [Example 31, formate]; bucket 2
CN(C)[C@H]1C[C@@H](c2cc(F)cc(Cl)c2)CC[C@@H]1Nc1cc(F)c(S(=O)(=O)Nc2ccncn2)cc1Cl [Example 25]; bucket 2
CN(C)[C@H]1C[C@@H](c2cc(C(F)(F)F)ccc2Cl)CC[C@@H]1Oc1cc(F)c(S(=O)(=O)Nc2ccncn2)cc1Cl [Example 86]; bucket 2
CN(C)[C@H]1C[C@@H](c2cccc(C(C)(F)F)c2)CC[C@@H]1Oc1cc(F)c(S(=O)(=O)Nc2ccncn2)cc1Cl [Example 91]; bucket 2
CN(C)[C@@H]1C[C@H](c2ccccc2C(F)(F)F)CC[C@H]1Nc1cc(F)c(S(=O)(=O)Nc2ccncn2)cc1Cl (single isomer, unassigned) [Example 78]; bucket 3
CN(C)[C@H]1C[C@@H](c2cccc(C3(C(F)(F)F)CC3)c2)CC[C@@H]1Nc1cc(F)c(S(=O)(=O)Nc2ccncn2)cc1Cl [Example 18]; bucket 1
O=S(=O)(Nc1ccncn1)c1cc(O)c(N[C@H]2CC[C@H](c3cccc(C(F)(F)F)c3)C[C@@H]2N2CCCC2)cc1F [Example 46, formate]; bucket 3
CN[C@H]1C[C@@H](c2cccc(C(F)(F)F)c2)CC[C@@H]1Oc1cc(F)c(S(=O)(=O)Nc2ccncn2)cc1Cl [Example 63]; bucket 3
CN(C)[C@H]1C[C@@H](c2cc(C(F)(F)F)ccc2F)CC[C@@H]1Oc1cc(F)c(S(=O)(=O)Nc2ccncn2)cc1Cl [Example 74]; bucket 2
CN(C)[C@H]1C[C@@H](c2cc(Cl)cc(C(F)(F)F)c2)CC[C@@H]1Nc1cc(F)c(S(=O)(=O)Nc2ccncn2)cc1Cl [Example 24]; bucket 1

*Q* Just checking, what class would you give CN(C)[C@H]1C[C@@H](c2cccc(OC(F)(F)F)c2)CC[C@@H]1Oc1cc(F)c(S(=O)(=O)Nc2ccncn2)cc1F [Example 59, formate] here?
*A* bucket 3

*Q* Another: CN(C)[C@H]1C[C@@H](c2cccc(C(F)(F)F)c2)CC[C@@H]1N1CCCc2cc(S(=O)(=O)Nc3ccncn3)c(F)cc21 [Example 54]
*A* bucket 1
